tested on: Saccharomyces cerevisiae; experiment: Antifungal activity against Saccharomyces cerevisiae by two fold serial dilution method; format: functional
Measured MIC, listed per entry for reference.
Quick reminder: number only, in µg/mL, skip the unit.

O=C(COc1ccc2ccccc2c1)NN/C=C(\NNC(=O)COc1ccc2ccccc2c1)c1cc2ccccc2oc1=O	16.5

# input Return reported MIC; argument: `CC(=N/NC(=O)COc1ccc(Cl)cc1Cl)/C(=N\Nc1ccc(Cl)cc1)S(=O)(=O)c1ccccc1`
# output 4.12

# input May I ask what MIC has been recorded for `CC(=N/NC(=O)COc1ccc(Cl)cc1Cl)/C(Cl)=N\Nc1ccc(Cl)cc1` ?
# output 16.5

# input Bench note: what MIC did `CC(=N/NC(=O)COc1ccc2ccccc2c1)/C(Cl)=N\Nc1ccc(Br)cc1` show?
# output 16.5

# input // lookup MIC for `CC(=N/NC(=O)COc1ccc(Cl)cc1Cl)/C(=N\Nc1ccc(Br)cc1)Sc1ccccc1`
# output 33

# input Would you mind telling me what MIC value was observed for `O=C(COc1ccc2ccccc2c1)NNCC(=O)Nc1nccs1` ?
# output 16.5

# input Reported MIC for `CC(=N\NC(=O)COc1ccc2ccccc2c1)/C(=N\Nc1ccc(Cl)cc1)S(=O)(=O)c1ccccc1` : what is it?
# output 8.25

# input Entry `CC(=N/NC(=O)COc1ccc(Cl)cc1Cl)/C(Cl)=N\Nc1ccc(Br)cc1` has what MIC?
# output 8.25

Origin of measurements: ChEMBL document CHEMBL1949515
